Origin of the recorded values: patent US12319655B2

test system: WM3928 cells; assay: WM3928 Cell Proliferation Assay (1); assay type: cell-based
measured_endpoint: IC50

# example entries with known answers
[
  {
    "molecule": "CNC(=O)c1cc(-c2cccc(-c3cc(NC(=O)c4ccnc(C(C)(C)C#N)c4)cnc3C)c2)cnn1 [Example 201]",
    "IC50": "100 to 500 nM"
  },
  {
    "molecule": "Cc1ccc(NC(=O)c2ccnc(C(C)(C)C#N)c2)cc1-c1cncc(-c2ccnc(C(=O)NC3CC3)c2)n1 [Example 148]",
    "IC50": "500 to 1000 nM"
  },
  {
    "molecule": "Cc1ccc(NC(=O)[C@H]2CCO[C@@H](C(C)C)C2)cc1-c1cc(-c2ccnc(NC(=O)C3CC3)c2)cnn1 [Example 388]",
    "IC50": "500 to 1000 nM"
  }
]

Now let's try a different one.
### Prompt I am curious: what IC50 value has been reported for COC(=O)Nc1cc(-c2nccc(-c3cc(NC(=O)c4ccnc(C(C)(C)F)c4)ccc3C)n2)ccn1 [Example 391] ?
### Response ≤ 100 nM
